Biological target: syntenin‐SDC2 complex (GST-SyntFL / SDC2 peptide) (Homo sapiens, UniProt O00560)
Construct: residues 1–298 or syntenin full‐length (FL) for HTRF assays
Sequence (O00560 1-298): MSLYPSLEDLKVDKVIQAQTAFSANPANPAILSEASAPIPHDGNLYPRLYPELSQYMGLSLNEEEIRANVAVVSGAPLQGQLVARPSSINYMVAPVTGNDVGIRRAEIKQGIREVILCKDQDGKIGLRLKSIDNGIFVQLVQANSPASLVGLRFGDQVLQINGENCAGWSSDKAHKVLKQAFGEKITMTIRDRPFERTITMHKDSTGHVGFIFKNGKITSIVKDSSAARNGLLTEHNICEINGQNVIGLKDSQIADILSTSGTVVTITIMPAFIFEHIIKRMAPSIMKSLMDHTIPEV
Test: HTRF assay, syntenin-SDC2 interaction
Conditions: HTRF dose-response; read-out: IC50 for syntenin‐SDC2 complexes

Molecule | IC50, µM
CC(C)[C@H](NC(=O)CCSc1ccc(Cl)cc1)C(=O)O [SyntOFF] | 37

----------
// reported GST-GRASP JAM-B (signal ratio) for each item listed
system: GRASP55‐JAM‐B complex; construct: Human GRASP55 tandem PDZ; made in house; host or cells: E. coli BL21 (DE3); test: HTRF assay, GRASP55-JAM-B interaction; assay type: biochemical, human; conditions: 400µM compound; Figure 1c

Chemical structure | GST-GRASP JAM-B (signal ratio)
CC(C)[C@H](NS(=O)(=O)c1ccc2ccccc2c1)C(=O)O | 1
CC(C)[C@H](NC(=O)COc1ccc2ccccc2c1)C(=O)O | 0.97
CC(C)[C@H](NC(=O)CSc1ccc(Cl)cc1)C(=O)O | 1.1
Cc1ccc(S(=O)(=O)N[C@H](C(=O)O)C(C)C)cc1C | 1.1
CC(C)[C@H](NS(=O)(=O)c1ccc2c(c1)OCCCO2)C(=O)O | 1

----------
tested on: syntenin‐Frizzled7 complex (GST-SyntFL / FZD7 peptide); construct: residues 1–298 or syntenin full‐length (FL) for HTRF assays; made in house; host or cells: E. coli ER2566; test: HTRF assay, syntenin-Frizzled 7 interaction; type: biochemical, human; settings: primary screen, 400 µM compound; signal below 0.9 considered effective inhibition; Table S1
Decision: HTRF ASSAY GST-SyntFL FZD7 (HTRF signal ratio) >= 0.7 yields rule met, all other cases yield rule not met.

Chemical structure | Label
CC(C)[C@H](NS(=O)(=O)c1ccc2ccccc2c1)C(=O)O | rule not met
CC(C)[C@H](NC(=O)CSc1ccc(Cl)cc1)C(=O)O | rule not met
CC(C)[C@H](NC(=O)COc1ccc2ccccc2c1)C(=O)O | rule met

----------
test: Chemical solubility and stability in PBS; assay type: physicochemical; conditions: aqueous buffer; PBS pH 7.4 22°C

Compound | solubility
CC(C)[C@H](NC(=O)CCSc1ccc(Cl)cc1)C(=O)O [SyntOFF] | > 2300 µg/mL

----------
biological target: syntenin‐SDC2 complex (GST-SyntFL / SDC2 peptide) (Homo sapiens); construct: residues 1–298 or syntenin full‐length (FL) for HTRF assays; made in house; host or cells: E. coli ER2566; assay: HTRF assay, syntenin-SDC2 interaction; type: biochemical; conditions: 400µM compound; Figure 1c
Assay readout: GST SyntFL Syndecan 2 (signal ratio)

Compound | Value
Cc1ccc(S(=O)(=O)N[C@H](C(=O)O)C(C)C)cc1C [Compound C47] | 0.78
CC(C)[C@H](NC(=O)COc1ccc2ccccc2c1)C(=O)O [Compound C4] | 0.78
CC(C)[C@H](NS(=O)(=O)c1ccc2c(c1)OCCCO2)C(=O)O [Compound C37] | 0.74
CC(C)[C@H](NC(=O)CSc1ccc(Cl)cc1)C(=O)O [Compound C58] | 0.36
CC(C)[C@H](NS(=O)(=O)c1ccc2ccccc2c1)C(=O)O [Compound C38] | 0.58

----------
# reported HTRF ASSAY GST-biot (HTRF signal ratio, control); entries follow
test system: biotinylated‐GST; assay: HTRF control with biotinylated-GST (non-specific interference with FRET signal); settings: primary screen, 400 µM compound; Table S1
Assay readout: HTRF ASSAY GST-biot (HTRF signal ratio, control)

Chemical structure | Value
CC(C)[C@H](NC(=O)CSc1ccc(Cl)cc1)C(=O)O | 1.01
CC(C)[C@H](NC(=O)COc1ccc2ccccc2c1)C(=O)O | 1.02
CC(C)[C@H](NS(=O)(=O)c1ccc2ccccc2c1)C(=O)O | 0.92
CC(C)[C@H](NS(=O)(=O)c1ccc2c(c1)OCCCO2)C(=O)O | 1.04
Cc1ccc(S(=O)(=O)N[C@H](C(=O)O)C(C)C)cc1C | 0.96

----------
Biological target: syntenin‐SDC2 complex (GST-SyntFL / SDC2 peptide) (Homo sapiens, UniProt O00560)
Construct: residues 1–298 or syntenin full‐length (FL) for HTRF assays; made in house; host or cells: E. coli ER2566
Sequence (O00560 1-298): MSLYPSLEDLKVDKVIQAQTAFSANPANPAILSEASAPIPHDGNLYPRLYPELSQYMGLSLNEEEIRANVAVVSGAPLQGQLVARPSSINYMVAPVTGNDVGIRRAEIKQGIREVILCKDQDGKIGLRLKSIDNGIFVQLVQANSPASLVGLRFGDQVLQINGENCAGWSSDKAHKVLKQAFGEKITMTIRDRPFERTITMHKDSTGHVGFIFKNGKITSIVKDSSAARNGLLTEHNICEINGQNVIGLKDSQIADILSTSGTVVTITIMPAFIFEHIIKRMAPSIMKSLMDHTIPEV
Experiment: HTRF assay, syntenin-SDC2 interaction
Type: biochemical
Details: primary screen, 400 µM compound; signal below 0.9 considered effective inhibition; Table S1
Assay readout: HTRF ASSAY GST-SyntFL SDC2 (HTRF signal ratio)

Compound | Value
Cc1ccc(S(=O)(=O)N[C@H](C(=O)O)C(C)C)cc1C [Compound C47] | 0.74
CC(C)[C@H](NS(=O)(=O)c1ccc2ccccc2c1)C(=O)O [Compound C38] | 0.59
CC(C)[C@H](NC(=O)COc1ccc2ccccc2c1)C(=O)O [Compound C4] | 0.78
CC(C)[C@H](NS(=O)(=O)c1ccc2c(c1)OCCCO2)C(=O)O [Compound C37] | 0.73

----------
Target: syntenin‐PDZ tandem plus C‐terminal domain (Homo sapiens, UniProt O00560)
Construct: made in house; host or cells: Biotin XCell F' E. coli cells
Test: Surface plasmon resonance (BIAcore), syntenin PDZ tandem plus C-terminal domain
Type: binding
Conditions: DMSO as vehicle, read-out: KD, syntenin‐PDZ tandem plus C‐terminal domain
Protocol: All SPR experiments were conducted with a BIAcore T200 instrument (GE Healthcare), at 25°C. A total of 8000 resonance units (RU) of biotinylated ligands (N‐terminal 6xHis tagged biotinylated syntenin tandem, syntenin tandem with C terminus, GRASP55 tandem or GST as control) were immobilized on a streptavidin‐sensor chip (GE Healthcare). […] Equilibrium dissociation constants (KD) were calculated by fitting the data to a simple Langmuir binding isotherm using GraphPad Prism. […]

Compound | Assay system | Kd
CC(C)[C@H](NC(=O)CCSc1ccc(Cl)cc1)C(=O)O [SyntOFF] | syntenin‐PDZ tandem plus C‐terminal domain (Homo sapiens, UniProt O00560) | 130 µM
